Experiment: phenylbenzoquinone (PBQ) writhing method (analgesia in mice, Sigmund et al)
Assay type: in vivo
Conditions: Mus musculus, sc, mice, phenylbenzoquinone writhing, subcutaneous route; read-out: Analgesic Tests ED50 PBQ S.C.
Each record here notes measured ED50.

{"Compound": "CC(N)C1(O)CCCCC1c1ccccc1.Cl (stereo not shown) [Example XXIII]", "Result": "> 30 mg/kg"}
{"Compound": "CC(=O)OC1(C(C)CN(C)C)CCCCC1c1ccc(O)cc1.Cl (stereo not shown) [XXXI]", "Result": "> 100 mg/kg"}
{"Compound": "C=CCN(CC=C)CC(C)C1(OC(C)=O)CCCCC1c1ccccc1 (stereo not shown) [Example XVI]", "Result": "> 3 mg/kg"}
{"Compound": "CC(=O)OC1(CCN(C)C)CCCCC1c1ccccc1 (stereo not shown) [Example XV]", "Result": "> 10 mg/kg"}
{"Compound": "COc1ccc(C2CCCCC2(OC(C)=O)C(C)CN(C)C)cc1OC.Cl (stereo not shown) [XXXIII]", "Result": "> 30 mg/kg"}

Find the recorded ED50 belonging to CC(=O)OC1(C(C)N(C)C)CCCCC1c1ccccc1 (stereo not shown) [XXVIII] and report it.
> 10 mg/kg

How about CNC(C)C1(O)CCCCC1c1ccccc1.Cl (stereo not shown) [XXIV] ?
> 30 mg/kg

How about CC(N(C)C)C1(O)CCCCC1c1ccccc1.Cl (stereo not shown) [Example XXVII] ?
> 100 mg/kg

How about CC(=O)OC1(C(C)CN2CCCC2)CCCCC1c1ccccc1.O=S(=O)(O)O (stereo not shown) [Example XXII] ?
~10 mg/kg

How about CC(=O)OC1(C(C)CN2CCN(c3ccccc3)CC2)CCCCC1c1ccccc1.Cl (stereo not shown) [Example XXI] ?
> 100 mg/kg
